Measured values drawn from ChEMBL document CHEMBL2417381 for this set.

- experimentSummary: Solubility of the compound in phosphate buffer at pH 7.4 by UV-Visible spectrophotometry
- Type: physicochemical
metric: solubility

[[record]]
recordsmiles = "Cc1ccc(Cn2c(C(=O)NCc3cccc(Cl)c3)cc(C(=O)c3ccccc3)c2C)cc1"
observedvalue = "≤ 6.8 µM"


====

Recorded pIC50 values for a group of compounds are listed next.
- Test system: Jurkat
- experimentSummary: Antiproliferative activity against human Jurkat cells after 48 hrs by MTT assay
- Assay type: functional, cell-based
pIC50: −log10 of the molar value.
metric: pIC50

[[record]]
recordsmiles = "Cc1c(C(=O)c2ccccc2)cc(C(=O)NCc2cccc(Cl)c2)n1Cc1ccccc1"
assaytarget = "Jurkat"
observedvalue = "< 4.00"

[[record]]
recordsmiles = "Cc1ccc(Cn2c(C(=O)NCc3cccc(Cl)c3)cc(C(=O)c3ccccc3)c2C)cc1"
assaytarget = "Jurkat"
observedvalue = "< 4.00"

[[record]]
recordsmiles = "Cc1c(C(=O)c2ccccc2)cc(C(=O)NCc2cccc(I)c2)n1Cc1ccccc1"
assaytarget = "Jurkat"
observedvalue = "< 4.00"

